# system-name: HLA-B60 on HLA typed EBV-LCLs (human)
# test: cell-based competition on acid-treated EBV-LCLs against 150 nM fluorescent reference peptide, flow cytometry
assay-readout: IC50 (µM)
Write the value in µM as a bare number.

Q: Need IC50, item KECVLHDDL (modifications not checked) [nonameric HA-1^H peptide …]
Result: 5.3
